Biological target: Phosphatidylinositol 4,5-bisphosphate 3-kinase catalytic subunit delta isoform (Homo sapiens)
pIC50: −log10 of the molar value.
observed-property: pIC50

// solved cases for pIC50 follow
CCOc1c([C@H](C)n2nc(C)c3c(N)ncnc32)cc(Cl)c(C)c1C1CNC(=O)C1 (stereo not given in full) : 8.85
COc1c([C@H](C)Nc2ncnc(N)c2C#N)cc(Cl)c(C)c1-c1ccc(C(=O)N(C)C)cn1 : 8.74
COc1c([C@H](C)n2nc(C)c3c(N)ncnc32)cc(Cl)c(C)c1C1CNC(=O)C1 (stereo not given in full) : 8.62
COc1c([C@H](C)n2nc(C)c3c(N)ncnc32)cc(Cl)c(C)c1-c1ccnc(C(=O)N(C)C)c1 : 9.03
COc1c([C@H](C)n2nc(C)c3c(N)ncnc32)cc(Cl)c(C#N)c1C1CN(C[C@H](C)O)C1 : 8.72

(A) C[C@H](Nc1ncnc2[nH]cnc12)c1cc(Cl)c2cccnc2c1-c1cccc(F)c1
(B) COc1c([C@H](C)Nc2ncnc3[nH]cnc23)cc(Cl)c(C)c1-c1cnn(C)c1
(C) COc1c([C@H](C)Nc2ncnc3[nH]cnc23)cc(Cl)c(C)c1-c1cncc(S(C)(=O)=O)c1
(D) COc1c([C@H](C)Nc2ncnc(N)c2C#N)cc(Cl)c(C)c1-c1cncc(S(C)(=O)=O)c1
Problem: Please put the entries in order of rising pIC50. Returns: the labels arranged in the requested order.
Solution: A, B, C, D

---

Assay: Solubility of the compound at pH 7.4
Format: physicochemical
Settings: buffer
observed-property: solubility (mg/mL)
The reply should contain only the number, in mg/mL.

Problem: Give its solubility value. Item: "CCOc1c([C@H](C)n2nc(C)c3c(N)ncnc32)cc(Cl)c(F)c1[C@@H]1CNC(=O)C1"
Solution: 0.21

---

Experiment: Fractional unbound in human plasma
Format: ADME, cell-free
observed-property: fraction unbound

// solved cases for fraction unbound follow
C[C@H](Nc1ncnc2[nH]cnc12)c1cc(Cl)c2cccnc2c1-c1cccc(F)c1 : 0.014
COc1c([C@H](C)n2nc(C)c3c(N)ncnc32)cc(Cl)c(C)c1C1CNC(=O)C1 (stereo not given in full) : 0.1
COc1c([C@H](C)Nc2ncnc3[nH]cnc23)cc(Cl)c(C)c1-c1ccc(S(C)(=O)=O)cc1 : 0.013
COc1c([C@H](C)Nc2ncnc3[nH]cnc23)cc(Cl)c(C)c1-c1cncc(S(C)(=O)=O)c1 : 0.12
Cc1c(Cl)cc(C(C)Nc2ncnc3[nH]cnc23)c(-c2cccc(F)c2)c1C#N (racemic) : 0.0064

(P) COc1c(C(C)n2ncc3c(N)ncnc32)cc(Cl)c(C)c1-c1ccnc(C(=O)N(C)C)c1 (racemic)
(Q) COc1c([C@H](C)Nc2ncnc3[nH]cnc23)cc(Cl)c(C)c1-c1cnn(C)c1
Problem: // pick min by fraction unbound: P , Q State the label of the item chosen.
Solution: Q

(1) COc1c([C@H](C)Nc2ncnc(N)c2C#N)cc(Cl)c(C)c1-c1cncc(S(C)(=O)=O)c1
(2) CCOc1c([C@H](C)n2nc(C)c3c(N)ncnc32)cc(Cl)c(C#N)c1C1CNC(=O)C1 (stereo not given in full)
(3) COc1c([C@H](C)n2nc(C)c3c(N)ncnc32)cc(Cl)c(C#N)c1C1CN(C[C@H](C)O)C1
Problem: Arrange the 3 compounds from largest to smallest fraction unbound. Returns: the labels arranged in the requested order.
Solution: 3, 2, 1

---

Test system: SU-DHL-6
Test: Cytotoxicity against human SUDHL6 cells assessed as reduction in cell viability incubated for 4 days by celltiter glo luminescent assay
Type: functional, cell-based
Details: SU-DHL-6, 96 h
observed-property: IC50 (nM)
The reply should contain only the number, in nM.

// solved cases for IC50 follow
Cc1c(Cl)cc(C(C)Nc2ncnc3[nH]cnc23)c(-c2cccc(F)c2)c1-c1cnn(C)c1 (racemic) : 60
COc1c(C(C)n2nc(C)c3c(N)ncnc32)cc(Cl)c(C)c1C1CCN(C)CC1 (racemic) : 44
CCOc1c([C@H](C)n2nc(C)c3c(N)ncnc32)cc(Cl)c(C#N)c1C1CNC(=O)C1 (stereo not given in full) : 0.47
COc1c([C@H](C)Nc2ncnc3[nH]cnc23)cc(Cl)c(C)c1-c1cncc(S(C)(=O)=O)c1 : 14

Problem: Give its IC50 value. Item: "Cc1csc2nc([C@H](C)Nc3ncnc4[nH]cnc34)c(-c3cccc(F)c3)c(=O)n12"
Solution: 18

---

Target: Phosphatidylinositol 4,5-bisphosphate 3-kinase catalytic subunit delta isoform (Homo sapiens, UniProt O00329)
Sequence (O00329 whole entry, canonical isoform): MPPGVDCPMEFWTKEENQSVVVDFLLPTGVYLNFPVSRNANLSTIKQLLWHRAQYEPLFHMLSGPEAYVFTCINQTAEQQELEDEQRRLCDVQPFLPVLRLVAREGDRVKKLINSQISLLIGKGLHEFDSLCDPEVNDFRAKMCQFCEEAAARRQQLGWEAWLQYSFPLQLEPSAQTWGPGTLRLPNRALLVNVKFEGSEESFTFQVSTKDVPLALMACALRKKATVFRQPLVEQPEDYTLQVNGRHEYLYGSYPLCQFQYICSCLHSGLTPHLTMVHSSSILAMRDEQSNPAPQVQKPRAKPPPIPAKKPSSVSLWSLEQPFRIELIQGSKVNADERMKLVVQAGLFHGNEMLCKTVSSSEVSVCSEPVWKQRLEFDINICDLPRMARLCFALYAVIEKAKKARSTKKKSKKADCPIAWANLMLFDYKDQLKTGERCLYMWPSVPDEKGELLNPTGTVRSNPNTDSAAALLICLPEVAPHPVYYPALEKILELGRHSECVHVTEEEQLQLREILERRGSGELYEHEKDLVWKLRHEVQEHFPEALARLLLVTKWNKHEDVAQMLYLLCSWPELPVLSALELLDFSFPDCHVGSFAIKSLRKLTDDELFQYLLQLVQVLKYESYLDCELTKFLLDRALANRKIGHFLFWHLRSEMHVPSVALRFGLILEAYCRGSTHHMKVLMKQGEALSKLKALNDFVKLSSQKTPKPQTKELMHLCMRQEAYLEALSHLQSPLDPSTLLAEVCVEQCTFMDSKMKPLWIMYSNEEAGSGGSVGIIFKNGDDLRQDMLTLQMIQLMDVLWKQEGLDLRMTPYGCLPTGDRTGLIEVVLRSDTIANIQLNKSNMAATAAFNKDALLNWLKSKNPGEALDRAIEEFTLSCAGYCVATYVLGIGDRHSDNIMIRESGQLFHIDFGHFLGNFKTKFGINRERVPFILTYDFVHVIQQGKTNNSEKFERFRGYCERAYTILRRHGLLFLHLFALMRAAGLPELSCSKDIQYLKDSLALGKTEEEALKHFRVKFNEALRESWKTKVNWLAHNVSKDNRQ
pIC50: −log10 of the molar value.
observed-property: pIC50

(I) Cc1c(Cl)cc(C(C)Nc2ncnc3[nH]cnc23)c(-c2cccc(F)c2)c1-c1cnn(C)c1 (racemic)
(II) COc1c(C(C)n2ncc3c(N)ncnc32)cc(Cl)c(C)c1-c1ccnc(C(=O)N(C)C)c1 (racemic)
Problem: // pick min by pIC50: I , II State the label of the item chosen.
Solution: II
(II: 6.92, I: 8.28)

(a) COc1c(C(C)n2nc(C)c3c(N)ncnc32)cc(Cl)c(C)c1C1CCN(C)CC1 (racemic)
(b) CC(Nc1ncnc2[nH]cnc12)c1ccc2cccnc2c1-c1cccc(F)c1 (racemic)
Problem: // pick min by pIC50: a , b State the label of the item chosen.
Solution: b
(b: 6.37, a: 7.96)
